Hey, just so you know, these numbers are from ChEMBL document CHEMBL1795293.

# maps each entry to its IC50
- Test system: HCT-116
- Assay Name: Cytotoxicity against human HCT116 cells after 72 hrs by MTT assay
- Format: functional, cell-based
- Measurement Context: HCT-116, 72 h

# count of solved cases: 3
Give its IC50 value. Item: Cl.Cl.N=C(N)c1ccc(C(=O)Nc2cccc(NC(=O)c3ccc(C(=N)N)cc3)n2)cc1
67 µM

Give its IC50 value. Item: CC(C)NC(=N)c1ccc(C(=O)Nc2cccc(NC(=O)c3ccc(C(=N)NC(C)C)cc3)n2)cc1.Cl.Cl
> 100 µM

Give its IC50 value. Item: Cl.Cl.N=C(N)c1ccc(NC(=O)c2cccc(C(=O)Nc3ccc(C(=N)N)cc3)n2)cc1
> 100 µM

// next entry
Give its IC50 value. Item: CC(C)NC(=N)c1ccc(NC(=O)c2cccc(C(=O)Nc3ccc(C(=N)NC(C)C)cc3)n2)cc1.Cl.Cl
> 100 µM
